biological target: α7^L131G, Q139L, Y217F-GlyR LGIC (Homo sapiens, UniProt P36544, L131G/Q139L/Y217F); experiment: Agonist potency at the modified chimeric LGIC
Sequence (P36544 with tags, fused parts or gaps L131G/Q139L/Y217F): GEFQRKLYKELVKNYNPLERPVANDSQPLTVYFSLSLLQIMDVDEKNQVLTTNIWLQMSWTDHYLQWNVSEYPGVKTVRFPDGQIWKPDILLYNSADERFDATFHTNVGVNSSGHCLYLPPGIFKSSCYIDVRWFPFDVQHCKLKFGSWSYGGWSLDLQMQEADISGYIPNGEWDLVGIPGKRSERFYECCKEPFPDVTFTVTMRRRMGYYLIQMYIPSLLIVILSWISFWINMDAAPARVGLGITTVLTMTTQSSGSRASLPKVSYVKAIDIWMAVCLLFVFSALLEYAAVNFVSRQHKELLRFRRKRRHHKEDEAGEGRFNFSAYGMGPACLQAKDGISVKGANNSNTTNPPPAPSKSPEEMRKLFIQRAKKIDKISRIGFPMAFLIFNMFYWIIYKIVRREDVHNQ

{"structure smiles string": "C[N+](C)(C)CCO", "EC50": "> 50 µM"}

----------
assay: 28-day study: varenicline PK in blood samples; assay type: in vivo, rat; conditions: rat, blood, po; 2 hours post-dose, 1 mg/kg p.o., average across groups
Structures can show the parent of a compound that is named as a salt.
readout type: concentration at 2 h

{"compound": "c1cnc2cc3c(cc2n1)[C@@H]1CNC[C@H]3C1 [varenicline, tartrate salt]", "readout type": "concentration at 2 h", "obs value": "~480 nM"}
